efficacy values, listed per item
Conditions: Ebola virus entry assay, green fluorescence channel; further: 0% is about no effect
Measured potencies and affinities stand elsewhere. Numbered stars: 1 amine (or outer) side, 2 acyl side, 3 side chain; on linkers, the order of the positions; unused ones are H or OH. Bridge positions count the residues as written; N and C are the ends. Square brackets hold non-standard residues; d marks the D form. Peptide text beside a SMILES is read from it. I, II: the chains in the order shown. Actinocin(9to1) = Cc1c2oc3c(C)ccc(C(=O)[*:1])c3nc-2c(C(=O)[*:2])c(N)c1=O; NMeV = CN[C@H](C(=O)O)C(C)C; Sar = CNCC(=O)O
Reply numerically in %, unit not repeated.

See these solved cases before continuing.
# compound, recorded.measurement
rows = [
    ("OCCN1C[C@H](O)[C@@H](O)[C@H](O)[C@H]1CO", -21.2),
    ("CNCC(O)c1ccc(O)cc1 (stereo not drawn)", -23.3),
    ("Cc1ccnc2c1NC(=O)c1cccnc1N2C1CC1", 25.7),
]

Look up efficacy: N=c1nc(N2CCCCC2)cc(N)n1O -16.3

Same for Cc1cccc(Nc2ccccc2C(=O)O)c1C 32.2

Same for O=C(CCCCCCC(=O)Nc1ccccc1)NO -11.4

Same for Cc1c2oc3c(C)ccc(C(=O)N[C@@H]4C(=O)N[C@H](C(C)C)C(=O)N5CCC[C@H]5C(=O)N(C)CC(=O)N(C)[C@@H](C(C)C)C(=O)O[C@@H]4C)c3nc-2c(C(=O)N[C@@H]2C(=O)N[C@H](C(C)C)C(=O)N3CCC[C@H]3C(=O)N(C)CC(=O)N(C)[C@@H](C(C)C)C(=O)O[C@@H]2C)c(N)c1=O (I: T[dV]P[Sar][NMeV] / II: T[dV]P[Sar][NMeV]; ester I:1-I:C, II:1-II:C; linker I:N-II:N via Actinocin(9to1)) 27.3

Same for CCCN1C[C@H](CSC)C[C@@H]2c3cccc4[nH]cc(c34)C[C@H]21 14.5
